target: isolated recombinant JAK2 kinase domain (Homo sapiens (Human), UniProt O60674); assay: JAK2 enzyme assay (Caliper LabChip, peptide phosphorylation); settings: 25 μM ATP
Sequence (O60674 849-1124): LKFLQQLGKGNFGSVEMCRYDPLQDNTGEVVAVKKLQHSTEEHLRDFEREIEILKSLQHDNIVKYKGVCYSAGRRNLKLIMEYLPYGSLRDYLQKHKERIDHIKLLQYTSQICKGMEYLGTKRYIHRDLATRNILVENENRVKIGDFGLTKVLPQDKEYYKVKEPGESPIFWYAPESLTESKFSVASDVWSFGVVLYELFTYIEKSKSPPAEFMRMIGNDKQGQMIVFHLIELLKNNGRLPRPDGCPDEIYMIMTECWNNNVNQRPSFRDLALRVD
Reported pKi values for a set of compounds
Kindly note that pKi refers to -log10 of the concentration in mol/L and answer with the value alone.

Examples with answers:
Query :: Consider the compound CN(C)CC(=O)Cn1cc(NC(=O)c2cnn3cccnc23)c(-c2cc(Cl)ccc2OC(F)F)n1 . State its measured pKi.
Result :: 9.37

Query :: Output measured pKi for this item: CN(CC(F)(F)F)C1CCN(C(=O)C2CCN(c3nc(-c4cc(Cl)ccc4OC(F)F)c(NC(=O)c4cnn5cccnc45)s3)CC2)CC1
Result :: 8.74

Query :: Specify measured pKi for O=C(Nc1cn(CC(=O)N2C[C@H]3CN(CC4CCOCC4)C[C@H]3C2)nc1-c1cc(Cl)ccc1OC(F)F)c1cnn2cccnc12 .
Result :: 9.03

Query :: Entry CN(C)C1CCN(C(=O)Cn2cc(NC(=O)c3c(N)nn4cccnc34)c(-c3cc(Cl)ccc3OC(F)F)n2)CC1 needs its pKi filled in; supply it.
Result :: 9.44

Query :: # return recorded pKi for input CNC(=O)CCCN1CCC(n2cc(NC(=O)c3cnn4cccnc34)c(-c3cc(Cl)ccc3OC(F)F)n2)CC1
Result :: 9.54

Query :: Item O=C(Nc1cn(CC(=O)N2C[C@@H]3CN(C(=O)OCCCO)C[C@@H]3C2)nc1-c1cc(Cl)ccc1OC(F)F)c1cnn2cccnc12 : provide pKi
Result :: 9.03

Query :: Give pKi for CNC(=O)CCN1CCC(n2cc(NC(=O)c3cnn4cccnc34)c(-c3cc(Cl)ccc3OC(F)F)n2)CC1
Result :: 9.41

Query :: Determine its reported pKi: CC(C)CN1CCC(n2cc(NC(=O)c3c(N)nn4cccnc34)c(-c3cc(Cl)ccc3OC(F)F)n2)CC1
Result :: 10.05

Continuing:
Query :: Respond only with pKi recorded for CN1C[C@@H]2CN(C(=O)c3nc(-c4cc(Cl)ccc4OC(F)F)c(NC(=O)c4cnn5cccnc45)s3)C[C@@H]2C1
Result :: 8.62

Query :: Provide pKi value for the following compound: O=C(Nc1cn(CC(=O)N2C[C@H]3CN(CC4CCCCC4)C[C@H]3C2)nc1-c1cc(Cl)ccc1OC(F)F)c1cnn2cccnc12
Result :: 9.21

Query :: Annotate the compound CN(C)C(=O)CN1CCN(CC2CCN(C(=O)Cn3cc(NC(=O)c4cnn5cccnc45)c(-c4cc(Cl)ccc4OC(F)F)n3)CC2)CC1 with its measured pKi.
Result :: 8.90

Query :: Give me measured pKi, please, for this compound: O=C(Nc1cn(Cc2cn(C3CCNCC3)nn2)nc1-c1cc(Cl)ccc1OC(F)F)c1cnn2cccnc12
Result :: 9.19

Query :: Return the recorded pKi value; entry: CN(C)C1CCN(C(=O)c2nc(-c3cc(Cl)ccc3OC(F)F)c(NC(=O)c3cnn4cccnc34)s2)CC1
Result :: 8.37

###

biological target: isolated recombinant JAK1 kinase domain (Homo sapiens (Human), UniProt P23458); experiment: JAK1 enzyme assay (Caliper LabChip, peptide phosphorylation); format: biochemical; details: isolated recombinant JAK1 kinase domain, 25 μM ATP
Sequence (P23458 875-1153): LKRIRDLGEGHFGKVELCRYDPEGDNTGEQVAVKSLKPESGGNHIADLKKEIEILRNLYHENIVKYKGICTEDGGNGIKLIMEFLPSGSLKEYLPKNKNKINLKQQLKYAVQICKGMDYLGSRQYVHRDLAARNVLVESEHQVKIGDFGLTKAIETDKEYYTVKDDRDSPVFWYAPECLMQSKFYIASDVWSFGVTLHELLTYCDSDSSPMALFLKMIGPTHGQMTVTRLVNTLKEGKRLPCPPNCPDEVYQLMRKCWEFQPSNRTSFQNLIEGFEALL
MEASURED PROPERTY: pKi
Please treat pKi as minus the base-10 logarithm of the molar concentration.

Known results for compounds:
Query :: Write down pKi measured for item O=C(Nc1cn(CC(=O)N2CCC(CN3CCC(F)(F)CC3)(c3ccccc3)CC2)nc1-c1cc(Cl)ccc1OC(F)F)c1cnn2cccnc12 [Example 111]
Result :: 8.51

Query :: Assign pKi to the following record: O=C1CCC(CNCCn2cc(NC(=O)c3cnn4cccnc34)c(-c3cc(Cl)ccc3OC(F)F)n2)O1 (stereo not drawn) [Example 381]
Result :: 8.97

# evaluate next
Query :: Let me know recorded pKi for CN(CC1(C#N)CCCCC1)C1CCN(C(=O)c2ccc(-n3cc(NC(=O)c4cnn5cccnc45)c(-c4cc(Cl)ccc4OC(F)F)n3)cc2)CC1 [Example 187] , thanks.
Result :: 8.15

###

tested on: JAK1-dependent STAT6 phosphorylation downstream of IL-13 stimulation in TF-1 human erythroleukemia cells; assay: JAK1 pathway assay in TF-1 cells (IL-13-pSTAT6, MSD); type: cell-based; conditions: Homo sapiens, TF-1, TF-1 cells, read-out: IL13-pSTAT6 EC50_TF-1
Where a name gives a salt, the structure may show the parent alone.
Mark each entry class 1 if its EC50 sits below 200 nM, and class 0 for all others.

These recorded examples may help you get a feel for the data.
Query :: Consider the compound CNC1CCN(C(=O)Cn2cc(NC(=O)c3cnn4cccnc34)c(-c3cc(Cl)ccc3OC(F)F)n2)CC1 [Example 83] . Is its EC50 strictly less than 200 nM?
Result :: class 1

Query :: Here's an entry: Cc1cnc2c(C(=O)Nc3cn(CC(=O)N4C[C@H]5CN(C)C[C@H]5C4)nc3-c3cc(Cl)ccc3OC(F)F)cnn2c1 [Example 8, hydrochloride] . Is its EC50 below 200 nM?
Result :: class 0

Query :: Determine whether this compound shows EC50 lower than 200 nM (ties excluded): O=C(Nc1cn(CC(=O)N2CC3(CCNC3)C2)nc1-c1cc(Cl)ccc1OC(F)F)c1cnn2cccnc12 [Example 220]
Result :: class 0

Query :: Record CN(C)C1CCN(C(=O)C2CCN(c3nc(-c4cc(Cl)ccc4OC(F)F)c(NC(=O)c4cnn5cccnc45)s3)CC2)CC1 [Example 197] : is its EC50 strictly below 200 nM?
Result :: class 1

Others:
Query :: Item CN1CC2CN(C(=O)Cn3cc(NC(=O)c4c(N)nn5cccnc45)c(-c4cc(Cl)ccc4OC(F)F)n3)CC2C1 (stereo not drawn) [Example 9] : EC50 beneath 200 nM, strictly?
Result :: class 1

###

biological target: isolated recombinant JAK2 kinase domain (Homo sapiens (Human)); test: JAK2 enzyme assay (Caliper LabChip, peptide phosphorylation); details: 25 μM ATP
MEASURED PROPERTY: pKi
Please note pKi is a logarithmic value: minus log10 of concentration in mol/L. Answer with that number alone.

Query :: Identify the reported pKi for the following entry. O=C1C=C(CN2CCN(C(=O)Cn3cc(NC(=O)c4cnn5cccnc45)c(-c4cc(Cl)ccc4OC(F)F)n3)CC2)CO1
Result :: 9.03

***
Query :: Consider the molecule Nc1nn2cccnc2c1C(=O)Nc1cn(CC(=O)N2CCC(O)(c3ccccc3)CC2)nc1-c1cc(Cl)ccc1OC(F)F and give its recorded pKi.
Result :: 9.59

Query :: Please supply the value of reported pKi for the item CC(C)CN1CCC2(CCN(C(=O)Cn3cc(NC(=O)c4cnn5cccnc45)c(-c4cc(Cl)ccc4OC(F)F)n3)CC2)C1
Result :: 8.89

Query :: Fill in reported pKi for this entry: Nc1nn2cccnc2c1C(=O)Nc1cn(CC(=O)N2C[C@H]3CN(CC4CCC(F)(F)CC4)C[C@H]3C2)nc1-c1cc(Cl)ccc1OC(F)F
Result :: 9.48

Query :: Consider the molecule O=C(Nc1sc(N2CC(N3CCCCC3)C2)nc1-c1cc(Cl)ccc1OC(F)F)c1cnn2cccnc12 and give its recorded pKi.
Result :: 9.07

###

system: JAK1-dependent STAT6 phosphorylation downstream of IL-13 stimulation in TF-1 human erythroleukemia cells; experiment: JAK1 pathway assay in TF-1 cells (IL-13-pSTAT6, MSD); assay type: cell-based; conditions: Homo sapiens, TF-1, TF-1 cells, read-out: IL13-pSTAT6 EC50_TF-1
The reader will find reported log10(EC50) values listed item by item below.
# values: log10(EC50), units nM

Check out these entries, answers already filled in.
Query :: Fill in log10(EC50) for record O=C(Cn1cc(NC(=O)c2cnn3cccnc23)c(-c2cc(Cl)ccc2OC(F)F)n1)NCC1(CO)CC1 [Example 291]
Result :: 0.56

Query :: Output measured log10(EC50) for this item: CC1(O)CCN(C(=O)Cn2cc(NC(=O)c3cnn4cccnc34)c(-c3cc(Cl)ccc3OC(F)F)n2)CC1 [Example 280]
Result :: 0.63

Query :: Answer with reported log10(EC50) of CN(Cc1cccc(Oc2ccccc2)c1)C1CCN(C(=O)Cn2cc(NC(=O)c3cnn4cccnc34)c(-c3cc(Cl)ccc3OC(F)F)n2)CC1 [Example 113]
Result :: 1.49

Query :: For the molecule N#CCCNC1CCN(C(=O)Cn2cc(NC(=O)c3cnn4cccnc34)c(-c3cc(Cl)ccc3OC(F)F)n2)CC1 [Example 87] , give its reported log10(EC50).
Result :: 1.19

Query :: For the molecule O=C(Nc1cn(CC2(O)CCCC2)nc1-c1cc(Cl)ccc1OC(F)F)c1cnn2cccnc12 [Example 292] , give its measured log10(EC50) value.
Result :: 0.15

More entries:
Query :: Report log10(EC50) for CN(Cc1ccccc1)C1CCN(C(=O)Cn2cc(NC(=O)c3cnn4cccnc34)c(-c3cc(Cl)ccc3OC(F)F)n2)CC1 [Example 98]
Result :: 0.58

Query :: Give the reported value of log10(EC50) for this record: CS(=O)(=O)CCCN1C[C@@H]2CN(C(=O)Cn3cc(NC(=O)c4cnn5cccnc45)c(-c4cc(Cl)ccc4OC(F)F)n3)C[C@@H]2C1 [Example 27]
Result :: 2.16

Query :: Identify the reported log10(EC50) for the following entry. CN(C)CCC1CCN(c2nc(-c3cc(Cl)ccc3OC(F)F)c(NC(=O)c3cnn4cccnc34)s2)CC1 [Example 191]
Result :: 1.02

Query :: Identify measured log10(EC50) corresponding to O=C(Nc1cn(C2CCN(CCCN3CCS(=O)(=O)CC3)CC2)nc1-c1cc(Cl)ccc1OC(F)F)c1cnn2cccnc12 [Example 161]
Result :: 1.35

Query :: Give me measured log10(EC50), please, for this molecule: CS(=O)(=O)CCN1C[C@@H]2CN(C(=O)Cn3cc(NC(=O)c4cnn5cccnc45)c(-c4cc(Cl)ccc4OC(F)F)n3)C[C@@H]2C1 [Example 31]
Result :: 2.01

Query :: Tell us which log10(EC50) value is on record for CCCCN(C)C1CCN(c2nc(-c3cc(Cl)ccc3OC(F)F)c(NC(=O)c3cnn4cccnc34)s2)CC1 [Example 199]
Result :: 0.86
